List of Barnyardgrass plant response rating values.
System: barnyardgrass
Experiment description: Test A pre-/postemergence greenhouse test
Assay type: in vivo, Echinochloa crus-galli
Experimental conditions: Postemergence, 500 g ai/ha; 0 to 100 scale, 0 is no effect, 100 is complete control
Quick one: just the number, no unit, thanks!

Some solved entries appear below for comparison.
Which Barnyardgrass plant response rating reading was recorded for the compound CC(c1c(C(F)(F)F)nn(C)c1OCC(F)(F)F)S(=O)(=O)c1cccc[n+]1[O-] (racemic) ?
100

Follow-up entry: "Cn1nc(C(F)(F)F)c(CS(=O)(=O)c2ccc(Cl)c[n+]2[O-])c1OCC(F)(F)C(F)(F)F"
70

Follow-up entry: Cn1nc(C(F)(F)F)c(C[S+]([O-])c2ccc(Cl)c[n+]2[O-])c1OC(F)F (centres unmarked)
90

Follow-up entry: Cc1cc[n+]([O-])c([S+]([O-])Cc2c(C(F)(F)C(F)(F)F)nn(C)c2OCC(F)(F)F)c1 (centres unmarked)
90

Follow-up entry: Cc1cc[n+]([O-])c(S(=O)(=O)C(C)c2c(C(F)(F)F)nn(C)c2OC(F)F)c1 (centres unmarked)
80

Now look at this entry.
Which Barnyardgrass plant response rating reading was recorded for the compound CC(Oc1c(C[S+]([O-])c2cccc[n+]2[O-])c(C(F)(F)F)nn1C)C(F)(F)F (centres unmarked) ?
90

====

List of Plant response rating, Mallow values.
System: common mallow
Experiment description: Test F preemergence test
Type: in vivo, Malva sylvestris
Experimental conditions: 16 g ai/ha, preemergence; scale 0 to 100
Quick one: just the number, no unit, thanks!

Some solved entries appear below for comparison.
Which Plant response rating, Mallow reading was recorded for the compound "Cc1cc[n+]([O-])c(S(=O)(=O)Cc2c(C(F)(F)F)nn(C)c2OCC(F)(F)F)c1" ?
0

Follow-up entry: Cn1nc(C(F)(F)F)c(C[S+]([O-])c2ccc(F)c[n+]2[O-])c1OCC(F)(F)F (stereo not shown)
0

Follow-up entry: CC(Oc1c(C[S+]([O-])c2ccc(Cl)c[n+]2[O-])c(C(F)(F)F)nn1C)C(F)(F)F (stereo not shown)
50

***
Which Plant response rating, Mallow reading was recorded for the compound CC(Oc1c(C[S+]([O-])c2cccc[n+]2[O-])c(C(F)(F)F)nn1C)C(F)(F)F (stereo not shown) ?
65

====

Test system: morningglory
Experiment description: Test A pre-/postemergence greenhouse test
Type: in vivo, Ipomoea spp.
Experimental conditions: Postemergence, 125 g ai/ha; 0 to 100 scale, 0 is no effect, 100 is complete control
Readout: Morningglory plant response rating
Quick one: just the number, no unit, thanks!

Some solved entries appear below for comparison.
GET /values?readout=Morningglory plant response rating&system=morningglory&item= Cc1cc[n+]([O-])c([S+]([O-])Cc2c(C(F)(F)F)nn(C)c2Cl)c1 (racemic) [Compound 20]
40

Follow-up entry: Cn1nc(C(F)(F)F)c(C[S+]([O-])c2ccc(Cl)c[n+]2[O-])c1Cl (racemic) [Compound 17]
10

Follow-up entry: Cn1nc(C(F)(F)F)c(CS(=O)(=O)c2cccc[n+]2[O-])c1OC(F)F [Compound 4]
60

Follow-up entry: Cn1nc(C(F)(F)F)c(CS(=O)(=O)c2cccc[n+]2[O-])c1OCC(F)(F)F [Compound 29]
30

Follow-up entry: Cn1nc(C(F)(F)F)c(C[S+]([O-])c2cc(C(F)(F)F)cc[n+]2[O-])c1Cl (racemic) [Compound 34]
0

***
GET /values?readout=Morningglory plant response rating&system=morningglory&item= Cn1nc(C(F)(F)F)c(C[S+]([O-])c2cc(Cl)cc[n+]2[O-])c1Cl (racemic) [Compound 39]
60

Follow-up entry: Cn1nc(C(F)(F)F)c(C[S+]([O-])c2cccc[n+]2[O-])c1Cl (stereo not shown) [Compound 8]
60

Follow-up entry: Cc1cc[n+]([O-])c(S(=O)(=O)C(C)c2c(C(F)(F)F)nn(C)c2OC(F)F)c1 (stereo not shown) [Compound 11]
40

Follow-up entry: CC(c1c(C(F)(F)F)nn(C)c1Cl)S(=O)(=O)c1cccc[n+]1[O-] (stereo not shown) [Compound 10]
20

Follow-up entry: Cc1cc[n+]([O-])c(S(=O)(=O)C(Cl)c2c(C(F)(F)F)nn(C)c2Cl)c1 (racemic) [Compound 22]
20

Source listed as patent US20100298141A1.
